These data points were gathered from patent US11105794B2.

This section presents substances with their documented Toxicity grade values.
Tested on: PTEC-TERT1 cells
Assay: EGF assay, supernatant of PTEC-TERT1 cells
Settings: PTEC-TERT1, 6 days, 30 μM; from EGF, assay window saline vs toxic reference compound 4-1
l = locked nucleic acid (LNA); d = 2'-deoxy (DNA)
Keep it simple and answer with nothing but the number.

Example entries begin here.
GCtgtgtgagcttGG (antisense GCTGTGTGAGCTTGG; sugars from the 5' end l2 d11 l2, backbone and methylation of C not given here) [Compound 4-1]    100
ACTgctttccactCTG (ACTGCTTTCCACTCTG; chemistry not given here) [Compound 8-1]    208
CACattrccttrgctrCTrG (antisense CACATTCCTTGCTCTG; LNA gapmer, stereodefined phosphorothioates, chemistry not fully specified) [Compound 10-3]    23

For the substance CACattsccttsgctsCTsG (antisense CACATTCCTTGCTCTG; LNA gapmer, stereodefined phosphorothioates, chemistry not fully specified) [Compound 10-2] , what Toxicity grade is on record?
1
